TARGET OR SYSTEM: EGFR mutant T790M (Homo sapiens, UniProt P00533, T790M)
Construct: truncated human JAK3, EGFR mutants such as del E746-A750
Sequence (P00533 669-1210 T790M limits assumed): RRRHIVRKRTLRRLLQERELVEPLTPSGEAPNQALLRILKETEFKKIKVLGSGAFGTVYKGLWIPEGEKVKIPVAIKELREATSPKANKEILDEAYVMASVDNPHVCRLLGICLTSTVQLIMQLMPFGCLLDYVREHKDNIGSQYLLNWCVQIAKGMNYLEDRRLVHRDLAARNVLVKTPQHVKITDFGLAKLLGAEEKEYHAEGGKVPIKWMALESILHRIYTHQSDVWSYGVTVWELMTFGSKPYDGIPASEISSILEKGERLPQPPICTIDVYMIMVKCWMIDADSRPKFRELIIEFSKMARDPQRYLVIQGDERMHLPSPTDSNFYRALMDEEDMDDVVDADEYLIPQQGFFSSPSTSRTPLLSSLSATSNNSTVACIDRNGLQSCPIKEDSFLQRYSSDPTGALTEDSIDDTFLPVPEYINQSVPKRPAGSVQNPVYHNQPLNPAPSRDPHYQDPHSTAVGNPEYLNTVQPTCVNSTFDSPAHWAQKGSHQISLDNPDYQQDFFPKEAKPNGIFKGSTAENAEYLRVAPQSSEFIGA
METHOD SUMMARY: Kinase inhibition assay, EGFR mutant T790M;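 note: truncated human EGFR mutant enzyme preincubated two hours with compound, then ATP plus ULight-PolyGT peptide for one hour, Europium-labeled antibody LANCE detection, IC50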
CONDITION: biochemical potency
ENDPOINT NAME: IC50

Example results:
{"columns": ["MOLECULAR STRING", "MEASURED VALUE"],
 "data": [
  ["C=CC(=O)Nc1cc(Nc2ncc(C)c(-n3cc(CN(C)C4CN(C)C4)cn3)n2)c(OC)cc1N1CCOCC1", "201 to 1000 nM"],
  ["C=CC(=O)Nc1cc(Nc2nccc(-n3cc(CN(C)CC)c(C)n3)n2)c(OC)cc1N1CCOCC1", "20 to 200 nM"],
  ["C=CC(=O)Nc1cc(Nc2nccc(-n3cc(CN4CCC4)c(C)n3)n2)c(OC)cc1N1CCOCC1", "< 20 nM"],
  ["C=CC(=O)Nc1cc(Nc2ncc(C)c(-n3cc(CN4CC[C@@H](O)C4)c(C)n3)n2)c(OC)cc1N1CCOCC1", "< 20 nM"]
]}

Query: What does the record list as IC50 for C=CC(=O)Nc1cc(Nc2nccc(-n3cc(CN(C)C)c(C(C)(C)C)n3)n2)c(OC)cc1N(CC)CCOC ?
Result: 20 to 200 nM

Query: Next compound up: C=CC(=O)Nc1cc(Nc2nccc(-n3cc(CN4CCC4)c(C)n3)n2)c(OC)cc1N(C)CCN(C)C
Result: 20 to 200 nM

Query: Request: C=CC(=O)Nc1cc(Nc2nccc(-n3cc(CN4CCC4)c(C(C)(C)C)n3)n2)c(OC)cc1N1CCCC1
Result: 20 to 200 nM
